From: patent US20140357713A1

# Viable counts, Pseudomonas aeruginosa time kill study per entry
- System: Pseudomonas aeruginosa (ATCC 27853)
- TEST: Time kill study, Example 33 (0 to 5 min)
- Type: cell-based
- APPLIED CONDITIONS: 1×MIC, 0.5 min
- Method: Thirty compounds were tested for antimicrobial activity using standard procedures and standard strains for both the minimum inhibitory concentration (MIC) assay and a time kill study. Both the MIC assay and the time kill study were performed according to Clinical and Laboratory Standards Institute (CLSI) guidelines. […] The viable counts in Log10 CFU/mL at each time point were recorded. Time kill studies. […] Colonies were counted after 24 to 48 hrs of incubation. […]
Structures can show the parent of a compound that is named as a salt.
RESULT TYPE: Viable counts, Pseudomonas aeruginosa time kill study (Log10 CFU/mL)

COMPOUND	VALUE QUALIFIER	RESULT VALUE
CCCCCCCCCCCCOC(=O)C(CC(C)C)N(C)C (centres unmarked) [Nex-55, hydrochloride]	=	5.61
CCCCCCCCCCCOC(=O)C(C)N(C)C (centres unmarked) [Nex-67, hydrochloride]	<	4.0
CCCCCCCCCCCCOC(=O)C(C)N(C)C (centres unmarked) [Nex-30]	<	4.0
CCCCCCCCCCCCCCOC(=O)C(C)N(C)C (centres unmarked) [Nex-66, hydrochloride]	=	5.91
CCCCCCCCCCCCOC(=O)CN(C)C [Nex-52, hydrochloride]	=	4.7

* * *

- TEST: Solubility (Sol., Table 1)
- Assay type: physicochemical
Structures can show the parent of a compound that is named as a salt.
# Sol. per entry

MOLECULE	Sol.
CCCCCCCCCCCCOC(=O)C(C)(C)N(C)C [Nex-58, hydrochloride]	51%
CCCCCCCCCCCCOC(=O)C(C)NCCO.Cl (centres unmarked)	40%
CCCCCCCCCCCC(C)OC(=O)C(C)N(C)C (centres unmarked) [Nex-64, hydrochloride]	44%
CCCCCCCCOC(=O)C(C)N(C)C (centres unmarked) [Nex-70, hydrochloride]	134%
CCCCCCCCCCCCOC(=O)C(C)NC.Cl (centres unmarked)	33%
CCCCCCCCCCOC(=O)C(C)N(C)C (centres unmarked) [Nex-68, hydrochloride]	97%
CCCCCCCCCCCCOC(=O)C(CC(C)C)N(C)C (centres unmarked) [Nex-55, hydrochloride]	50%
CCCCCCCCCCCCOC(=O)C(C(C)O)N(C)C (centres unmarked) [Nex-51, hydrochloride]	98%
CCCCCCCCCCCCCOC(=O)C(C)N(C)C (centres unmarked) [Nex-69, hydrochloride]	51%
CCCCCCCCCCCCOC(=O)C(C)NCCN(CC)CC.Cl (centres unmarked)	48%
CCCCCCCCCCCC(C)(C)OC(=O)C(C)N(C)C.Cl (centres unmarked)	51%
CCCCCCCCCCCCOC(=O)C(C(C)C)N(C)C (centres unmarked) [Nex-53, hydrochloride]	44%
CCCCCCCCCCCCCCOC(=O)C(C)N(C)C (centres unmarked) [Nex-66, hydrochloride]	48%
CCCCCCCCCCCCOC(=O)C(C)NC(C)C.Cl (centres unmarked)	46%
CCCCCCCCCCCCOC(=O)C(Cc1ccccc1)N(C)C (centres unmarked) [Nex-54, hydrochloride]	58%
CCCCCCCCCCCOC(=O)C(C)N(C)C (centres unmarked) [Nex-67, hydrochloride]	81%
CCCCCCCCCCCCOC(=O)CN(C)C [Nex-52, hydrochloride]	49%

* * *

# Viable counts, Staphylococcus aureus time kill study per entry
- Test system: Staphylococcus aureus
- TEST: Extended time kill study, Example 34 (0 to 24 h)
- Assay type: cell-based
- APPLIED CONDITIONS: 1×MIC, time 0
Counter-ions that a name gives are not always drawn.
RESULT TYPE: Viable counts, Staphylococcus aureus time kill study (Log10 CFU/mL)

COMPOUND	UNITS LABEL	RESULT VALUE
CCCCCCCCCCCCOC(=O)C(C)N(C)C (centres unmarked) [Nex-05, hydrochloride]	Log10 CFU/mL	6.24
CCCCCCCCCCCCOC(=O)C(C)NCCN(CC)CC.Cl (centres unmarked)	Log10 CFU/mL	6.23
CCCCCCCCCCCCOC(=O)C(C)NC(C)C.Cl (centres unmarked)	Log10 CFU/mL	6.22
CCCCCCCCCCCCOC(=O)C(C)NC.Cl (centres unmarked)	Log10 CFU/mL	6.20
CCCCCCCCCCCCOC(=O)C(C)NCCO.Cl (centres unmarked)	Log10 CFU/mL	6.14

* * *

- Tested on: Escherichia coli
- TEST: Extended time kill study, Example 34 (0 to 24 h)
- Assay type: cell-based
- APPLIED CONDITIONS: 2 × MIC, time 0
Where a name gives a salt, the structure may show the parent alone.
RESULT TYPE: Viable counts, Escherichia coli time kill study (Log10 CFU/mL)

MOLECULE	UNITS LABEL	RESULT VALUE
CCCCCCCCCCCCOC(=O)C(C)NC(C)C.Cl (centres unmarked)	Log10 CFU/mL	5.14
CCCCCCCCCCCCOC(=O)C(C)NC.Cl (centres unmarked)	Log10 CFU/mL	5.12
CCCCCCCCCCCCOC(=O)C(C)NCCO.Cl (centres unmarked)	Log10 CFU/mL	5.03
CCCCCCCCCCCCOC(=O)C(C)NCCN(CC)CC.Cl (centres unmarked)	Log10 CFU/mL	5.18
CCCCCCCCCCCCOC(=O)C(C)N(C)C (centres unmarked) [Nex-05, hydrochloride]	Log10 CFU/mL	5.16

* * *

- Tested on: Candida albicans (ATCC 90029)
- TEST: Minimum inhibitory concentration (MIC) assay, Example 33
- Type: cell-based
- APPLIED CONDITIONS: Candida albicans, ATCC90029, read-out: MIC Candida albicans, n = 1
- Method: Thirty compounds were tested for antimicrobial activity using standard procedures and standard strains for both the minimum inhibitory concentration (MIC) assay and a time kill study. […] For Aspergillus niger, sporulating colonies were covered with RPMI 1640, and a suspension was prepared by gently probing the colonies with the tip of a transfer pipette. […] The MIC was read and recorded according to CLSI guidelines. […]
Where a name gives a salt, the structure may show the parent alone.
# MIC per entry

COMPOUND	VALUE QUALIFIER	MIC / mg/mL
CCCCCCCCCCCCOC(=O)C(C)(C)N(C)C [Nex-58, hydrochloride]	>	12.5
CCCCCCCCCCCCCOC(=O)C(C)N(C)C (stereo not shown) [Nex-69, hydrochloride]	=	12.5
CCCCCCCCCCCCOC(=O)C(C)N(C)C (stereo not shown) [Nex-05, hydrochloride]	>	12.5
CCCCCCCCCCCOC(=O)C(C)N(C)C (stereo not shown) [Nex-67, hydrochloride]	=	6.25
CCCCCCCCCCCCOC(=O)C(CC(C)C)N(C)C (stereo not shown) [Nex-55, hydrochloride]	>	12.5
CCCCCCCCCCCCCCOC(=O)C(C)N(C)C (stereo not shown) [Nex-66, hydrochloride]	>	12.5
CCCCCCCCOC(=O)C(C)N(C)C (stereo not shown) [Nex-70, hydrochloride]	=	0.78

* * *

- System: Candida albicans (ATCC 90029)
- TEST: Minimum inhibitory concentration (MIC) assay, Example 33
- Assay type: cell-based
- APPLIED CONDITIONS: Candida albicans, ATCC90029, n = 1; read-out: MIC Candida albicans

MOLECULE	UNITS LABEL	VALUE QUALIFIER	MIC
CCCCCCCCCCCCOC(=O)C(C)NC.Cl (stereo not drawn)	µg/mL	=	25
CCCCCCCCCCCCOC(=O)C(C)NC(C)C.Cl (stereo not drawn)	µg/mL	=	12500
CCCCCCCCCCCCOC(=O)C(C)NCCN(CC)CC.Cl (stereo not drawn)	µg/mL	=	6.25
CCCCCCCCCCCC(C)(C)OC(=O)C(C)N(C)C.Cl (stereo not drawn)	µg/mL	>	12500
CCCCCCCCCCCCOC(=O)C(C)NCCO.Cl (stereo not drawn)	µg/mL	=	12.5
OC(Cn1cncn1)(Cn1cncn1)c1ccc(F)cc1F [Fluconazole, reference compound]	µg/mL	=	0.25

* * *

- Test system: Staphylococcus aureus
- TEST: Extended time kill study, Example 34 (0 to 24 h)
- Format: cell-based
- APPLIED CONDITIONS: 1 × MIC, 6 h
Where a name gives a salt, the structure may show the parent alone.
RESULT TYPE: Viable counts, Staphylococcus aureus time kill study (Log10 CFU/mL)

MOLECULE	VALUE QUALIFIER	RESULT VALUE
CCCCCCCCCCCCOC(=O)C(C)NC(C)C.Cl (centres unmarked)	=	5.97
CCCCCCCCCCCCOC(=O)C(C)NCCO.Cl (centres unmarked)	<	3
CCCCCCCCCCCCOC(=O)C(C)NCCN(CC)CC.Cl (centres unmarked)	=	4.48
CCCCCCCCCCCCOC(=O)C(C)N(C)C (centres unmarked) [Nex-05, hydrochloride]	<	3
CCCCCCCCCCCCOC(=O)C(C)NC.Cl (centres unmarked)	<	3

* * *

# Viable counts, Escherichia coli time kill study per entry
- Test system: Escherichia coli
- TEST: Extended time kill study, Example 34 (0 to 24 h)
- Type: cell-based
- APPLIED CONDITIONS: 1 × MIC, 2 h
Counter-ions that a name gives are not always drawn.
RESULT TYPE: Viable counts, Escherichia coli time kill study (Log10 CFU/mL)

MOLECULE	STUDY TARGET	UNITS LABEL	VALUE QUALIFIER	RESULT VALUE
CCCCCCCCCCCCOC(=O)C(C)NCCO.Cl (centres unmarked)	Escherichia coli	Log10 CFU/mL	=	1.60
CCCCCCCCCCCCOC(=O)C(C)NCCN(CC)CC.Cl (centres unmarked)	Escherichia coli	Log10 CFU/mL	=	1
CCCCCCCCCCCCOC(=O)C(C)N(C)C (centres unmarked) [Nex-05, hydrochloride]	Escherichia coli	Log10 CFU/mL	<	1
CCCCCCCCCCCCOC(=O)C(C)NC.Cl (centres unmarked)	Escherichia coli	Log10 CFU/mL	<	1
CCCCCCCCCCCCOC(=O)C(C)NC(C)C.Cl (centres unmarked)	Escherichia coli	Log10 CFU/mL	<	1
